The reader will find reported pKi values listed item by item below.
# system tested: Carbonic anhydrase 7 (Homo sapiens, UniProt P43166)
# Sequence (P43166 whole entry): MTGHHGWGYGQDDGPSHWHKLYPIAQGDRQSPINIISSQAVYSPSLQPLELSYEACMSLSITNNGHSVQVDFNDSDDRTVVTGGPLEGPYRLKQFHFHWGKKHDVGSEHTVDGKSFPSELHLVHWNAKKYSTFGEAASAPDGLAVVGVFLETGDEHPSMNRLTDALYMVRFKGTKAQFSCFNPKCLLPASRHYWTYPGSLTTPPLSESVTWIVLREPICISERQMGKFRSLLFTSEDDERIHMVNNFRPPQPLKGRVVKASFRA
# measurement notes: Inhibition of recombinant human carbonic anhydrase 7 incubated for 15 mins prior to testing measured for 10 to 100 secs by phenol red based stopped-flow CO2 hydration assay
pKi: −log10 of the molar value.
outcome measure: pKi

chemical smiles: NS(=O)(=O)c1ccc(N2CCN=C2c2ccc(Cl)cc2)cc1
outcome measure: pKi
reported measurement: 6.57
//
chemical smiles: NS(=O)(=O)c1ccc(N2CCN=C2c2ccc(F)cc2)cc1
outcome measure: pKi
reported measurement: 6.52
